Protein target, amino acids: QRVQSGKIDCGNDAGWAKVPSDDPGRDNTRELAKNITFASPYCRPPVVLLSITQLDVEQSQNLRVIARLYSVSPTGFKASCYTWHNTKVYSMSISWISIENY
readout.type: pIC50
Formally, pIC50 is defined as -log10 of the concentration c, with c in mol/L.

Any idea what its pIC50 is? The molecule is CC(=O)N[C@H]1C(O)O[C@H](CO)[C@H](O)[C@@H]1O (stereo partly shown)
3.66

Reference source: paper PMC3721678
